- TARGET_OR_TEST_SYSTEM: α-glucosidase (Saccharomyces cerevisiae)
- Construct: purchased Shanghai Yuanye Biotechnology Co., Shanghai, China Lot No. M23HS178879 (catalogue number not given)
- ASSAY_PROTOCOL: CD spectroscopy, secondary structure of α-glucosidase (BeStSel)
- STUDY_CONDITIONS: molar ratio 40:1, α-glucosidase 4 μM; free enzyme 28.8
- Procedure: CD spectra in the far-UV region (190–250 nm) were scanned by using a CD spectrometer (JASCO-1.5 Tokyo, Japan). […] The slit width was set to 1 nm, and the baseline was calibrated with PBS (phosphate buffered saline). CD spectra were averaged over three scans under a constant nitrogen flow, with the buffer signal subtracted. The results were analyzed using the BeStSel database (https://bestsel.elte.hu/index.php, accessed on 16 May 2025).
The label is 1 (yes) for β-sheet below 20% and 0 (no) for β-sheet equal to or exceeding 20%.

O=C1C[C@@H](c2ccc(O)cc2)Oc2cc(O)ccc21 ... 1 (yes)
C[C@@H]1O[C@@H](OC[C@H]2O[C@@H](Oc3c(-c4ccc(O)c(O)c4)oc4cc(O)cc(O)c4c3=O)[C@H](O)[C@@H](O)[C@@H]2O)[C@H](O)[C@H](O)[C@H]1O ... 1 (yes)

Bench note: check whether O=c1c(O)c(-c2ccc(O)c(O)c2)oc2cc(O)cc(O)c12 shows β-sheet below 20% 0 (no)

Hi there! Is β-sheet for COc1ccc2c(c1OC)OC1c3ccc(O[C@@H]4O[C@H](CO)[C@@H](O)[C@H](O)[C@H]4O)cc3OCC21 (stereo partly drawn) [C19, astrapterocarpan-3-O-glucoside] below 20%, do you know? 1 (yes)

Check if β-sheet falls below 20% for COc1ccc(C2COc3cc(O)ccc3C2)c(O)c1OC (stereo not drawn) . 0 (no)

###

- TARGET_OR_TEST_SYSTEM: α-glucosidase (Saccharomyces cerevisiae)
- Construct: purchased Shanghai Yuanye Biotechnology Co., Shanghai, China Lot No. M23HS178879 (catalogue number not given)
- ASSAY_PROTOCOL: Mixture effects of flavonoid combinations on α-glucosidase
- Assay type: biochemical
- STUDY_CONDITIONS: calculated from the dose–response curve
PARAMETER: IC05
Answer with the figure and its unit, nothing else.

O=C(/C=C/c1ccc(O)cc1)c1ccc(O)cc1O ... 9.73 µM
O=c1c(O)c(-c2ccc(O)c(O)c2)oc2cc(O)cc(O)c12 ... 0.82 µM

Read the next record carefully.
Entry O=C1C[C@@H](c2ccc(O)cc2)Oc2cc(O)cc(O)c21 : reported IC05 = ? 26.47 µM

###

Let's look at some molecules and their measured IC50.
- TARGET_OR_TEST_SYSTEM: Saccharomyces cerevisiae α-glucosidase (Saccharomyces cerevisiae)
- Construct: purchased Shanghai Yuanye Biotechnology Co., Shanghai, China Lot No. M23HS178879 (catalogue number not given)
- Sequence (P53341 whole entry): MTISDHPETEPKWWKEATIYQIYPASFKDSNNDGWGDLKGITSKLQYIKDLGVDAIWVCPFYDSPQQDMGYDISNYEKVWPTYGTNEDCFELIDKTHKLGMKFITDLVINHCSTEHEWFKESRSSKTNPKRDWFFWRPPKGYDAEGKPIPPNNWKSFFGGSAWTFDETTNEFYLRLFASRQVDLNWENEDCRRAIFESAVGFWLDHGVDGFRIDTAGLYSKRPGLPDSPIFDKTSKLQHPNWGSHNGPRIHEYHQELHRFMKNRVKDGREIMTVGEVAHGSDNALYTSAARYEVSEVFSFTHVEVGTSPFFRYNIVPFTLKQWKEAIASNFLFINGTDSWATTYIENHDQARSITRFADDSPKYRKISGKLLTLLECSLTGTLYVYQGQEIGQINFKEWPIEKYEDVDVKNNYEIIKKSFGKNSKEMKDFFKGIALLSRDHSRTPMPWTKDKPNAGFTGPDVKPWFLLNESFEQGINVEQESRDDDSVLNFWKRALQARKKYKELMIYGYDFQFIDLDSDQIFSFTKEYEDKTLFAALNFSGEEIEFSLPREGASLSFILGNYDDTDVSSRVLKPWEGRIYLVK
- ASSAY_PROTOCOL: biochemical
- STUDY_CONDITIONS: IC50, α-glucosidase 0.2 U/mL, 5 mM pNPG, PBS pH 6.8, 37 °C
Give the quantity in µM, number only.

// below: answered molecules
COc1ccc(C2COc3cc(O)ccc3C2)c(O)c1OC (stereo not drawn) ... 354
COc1ccc(-c2coc3cc(O[C@@H]4O[C@H](CO)[C@@H](O)[C@H](O)[C@H]4O)ccc3c2=O)cc1O [C16, calycosin-7-O-glucoside] ... 563
Oc1ccc([C@H]2COc3cc(O)ccc3C2)cc1 ... 131
O=c1c(-c2ccc(O)cc2)coc2cc(O)ccc12 ... 83.7
O=C1c2ccc(O)cc2OCC1c1ccc(O)cc1 (stereo not drawn) [C28, dihydrodaidzein] ... 412

Entry O=c1c(O[C@@H]2O[C@H](CO)[C@@H](O)[C@H](O)[C@H]2O)c(-c2ccc(O)c(O)c2)oc2cc(O)cc(O)c12 : reported IC50 = ? 71.7

Field request: IC50 | item: C[C@@H]1O[C@@H](OC[C@H]2O[C@@H](Oc3c(-c4ccc(O)c(O)c4)oc4cc(O)cc(O)c4c3=O)[C@H](O)[C@@H](O)[C@@H]2O)[C@H](O)[C@H](O)[C@H]1O 211

Consider the molecule shown here: O=C1C[C@@H](c2ccc(O)cc2)Oc2cc(O)ccc21 What is its recorded IC50? 161

Consider the molecule O=C(/C=C/c1ccc(O)cc1)c1ccc(O)cc1O and give its measured IC50. 69.1

###

# key: entry, value: Blood glucose levels
- Tested on: normal C57BL/6J mice
- ASSAY_PROTOCOL: Oral sucrose test, postprandial blood glucose
- Assay type: in vivo
- STUDY_CONDITIONS: 10 mg/kg oral, 30 min after sucrose 4 g/kg, n = 8; in mmol/L (unit assumed)
I only need the number, thanks.

COc1cc(-c2oc3cc(O)cc(O)c3c(=O)c2OC2OC(CO)C(O)C(O)C2O)ccc1O (stereo not shown) [C14, isorhamnetin-3-O-glucoside] ... 14.84
O=c1c(O)c(-c2ccc(O)c(O)c2)oc2cc(O)cc(O)c12 ... 14.46
O=C1C[C@@H](c2ccc(O)cc2)Oc2cc(O)ccc21 ... 14.06

Read the next record carefully.
Name the recorded Blood glucose levels for COc1ccc(-c2coc3cc(O[C@@H]4O[C@H](CO)[C@@H](O)[C@H](O)[C@H]4O)ccc3c2=O)cc1O [C16, calycosin-7-O-glucoside] . 15.01

###

- TARGET_OR_TEST_SYSTEM: α-glucosidase (Saccharomyces cerevisiae, UniProt P53341)
- Construct: purchased Shanghai Yuanye Biotechnology Co., Shanghai, China Lot No. M23HS178879 (catalogue number not given)
- Sequence (P53341 whole entry): as above
- ASSAY_PROTOCOL: CD spectroscopy, secondary structure of α-glucosidase (BeStSel)
- STUDY_CONDITIONS: molar ratio 10:1, α-glucosidase 4 μM; free enzyme 11.7
Each record here notes measured β-turn.
Entry rule: numbers only, all in %.

// known answers, use as guide
COc1ccc2c(c1OC)OC1c3ccc(O[C@@H]4O[C@H](CO)[C@@H](O)[C@H](O)[C@H]4O)cc3OCC21 (stereo partly shown) [C19, astrapterocarpan-3-O-glucoside] ... 10.7
O=c1c(O[C@@H]2O[C@H](CO)[C@@H](O)[C@H](O)[C@H]2O)c(-c2ccc(O)c(O)c2)oc2cc(O)cc(O)c12 [C10, isoquercitrin] ... 14.2
O=C1C[C@@H](c2ccc(O)cc2)Oc2cc(O)cc(O)c21 [C5, naringenin] ... 12.8
O=c1c(O)c(-c2ccc(O)c(O)c2)oc2cc(O)cc(O)c12 [C1, quercetin] ... 13.1
COc1ccc(C2COc3cc(O)ccc3C2)c(O)c1OC (stereo not shown) [C17, isomucronulatol] ... 11.7
O=c1c(O)c(-c2ccc(O)cc2)oc2cc(O)cc(O)c12 [C2, kaempferol] ... 12.5

I am curious: what β-turn value has been reported for COc1cc(-c2oc3cc(O)cc(O)c3c(=O)c2OC2OC(CO)C(O)C(O)C2O)ccc1O (stereo not shown) [C14, isorhamnetin-3-O-glucoside] ? 12.8

###

- Tested on: normal C57BL/6J mice
- ASSAY_PROTOCOL: Oral sucrose test, postprandial blood glucose
- Type: in vivo
- STUDY_CONDITIONS: 10 mg/kg oral, 30 min after sucrose 4 g/kg, n = 8; in mmol/L (unit assumed)
PARAMETER: Blood glucose levels
Respond with the number and no other words.

O=c1c(O)c(-c2ccc(O)cc2)oc2cc(O)cc(O)c12 [C2, kaempferol] ... 12.68

Requested read-out: Blood glucose levels. Entry: Oc1ccc([C@H]2COc3cc(O)ccc3C2)cc1 [C29, equol] 14.70

Please look up its Blood glucose levels: COc1ccc(C2COc3cc(O)ccc3C2)c(O)c1OC (stereo not shown) [C17, isomucronulatol] 14.46

// Blood glucose levels lookup, key: COc1ccc2c(c1OC)OC1c3ccc(O[C@@H]4O[C@H](CO)[C@@H](O)[C@H](O)[C@H]4O)cc3OCC21 (stereo partly shown) [C19, astrapterocarpan-3-O-glucoside] 13.71

###

Catalogue of pKd values
- TARGET_OR_TEST_SYSTEM: α-glucosidase (Saccharomyces cerevisiae, UniProt P53341)
- Construct: purchased Shanghai Yuanye Biotechnology Co., Shanghai, China Lot No. M23HS178879 (catalogue number not given)
- ASSAY_PROTOCOL: biochemical
- Format: binding
In simple prose, pKd is minus the logarithm base ten of a concentration in moles per litre.

Please review the following examples before continuing.
Oc1ccc([C@H]2COc3cc(O)ccc3C2)cc1 [C29, equol] ... 3.07
COc1ccc(-c2coc3cc(O[C@@H]4O[C@H](CO)[C@@H](O)[C@H](O)[C@H]4O)ccc3c2=O)cc1O [C16, calycosin-7-O-glucoside] ... 3.44

State its pKd on α-glucosidase (Saccharomyces cerevisiae, UniProt P53341): O=c1c(-c2ccc(O)cc2)coc2cc(O)ccc12 [C11, daidzein] 4.70

###

- TARGET_OR_TEST_SYSTEM: α-glucosidase (Saccharomyces cerevisiae, UniProt P53341)
- Construct: purchased Shanghai Yuanye Biotechnology Co., Shanghai, China Lot No. M23HS178879 (catalogue number not given)
- ASSAY_PROTOCOL: CD spectroscopy, secondary structure of α-glucosidase (BeStSel)
- STUDY_CONDITIONS: molar ratio compound:α-glucosidase 10:1, α-glucosidase 4 μM; free enzyme 14.4
PARAMETER: α-helix (%)
Respond with the bare value in %.

Before answering, review these 5 worked examples.
O=c1c(-c2ccc(O)cc2)coc2cc(O)ccc12 [C11, daidzein] ... 17.7
C[C@@H]1O[C@@H](OC[C@H]2O[C@@H](Oc3c(-c4ccc(O)c(O)c4)oc4cc(O)cc(O)c4c3=O)[C@H](O)[C@@H](O)[C@@H]2O)[C@H](O)[C@H](O)[C@H]1O [C6, rutin] ... 15.5
COc1cc(-c2oc3cc(O)cc(O)c3c(=O)c2OC2OC(CO)C(O)C(O)C2O)ccc1O (stereo not shown) [C14, isorhamnetin-3-O-glucoside] ... 13.1
O=c1c(O[C@@H]2O[C@H](CO)[C@@H](O)[C@H](O)[C@H]2O)c(-c2ccc(O)c(O)c2)oc2cc(O)cc(O)c12 [C10, isoquercitrin] ... 12.4
O=c1c(O)c(-c2ccc(O)cc2)oc2cc(O)cc(O)c12 [C2, kaempferol] ... 14.1

# lookup: α-helix of COc1ccc(-c2coc3cc(O[C@@H]4O[C@H](CO)[C@@H](O)[C@H](O)[C@H]4O)ccc3c2=O)cc1O [C16, calycosin-7-O-glucoside] 13.3

Fill in the blank: the reported α-helix of O=C(/C=C/c1ccc(O)cc1)c1ccc(O)cc1O [C4, isoliquiritigenin] is ____. 15.0
